# TESTED_TARGET: B2 bradykinin receptor (Homo sapiens, UniProt P30411)
# ASSAY_INFO: Compound was assayed for binding against the human Bradykinin receptor B2 expressed in CHO cells; 0.2-16
# Assay type: cell-based
# SETTINGS: cho
MEASUREMENT_NAME: pKd
Numbers only, as −log10 of the molar value.

## Input // returns reported pKd for input NCCCC[C@@H]1NC(=O)[C@H](c2ccccc2)NC(=O)[C@H](CNC(=O)Cc2ccccc2)NC(=O)[C@H]2Cc3ccccc3CN2C(=O)[C@@H]2CC3CCCCC3N2C(=O)[C@H](CN)NC1=O (stereo partly specified)
## Output 6.70

###

# TESTED_TARGET: B2 bradykinin receptor (Homo sapiens, UniProt P30411)
# Sequence (P30411 whole entry): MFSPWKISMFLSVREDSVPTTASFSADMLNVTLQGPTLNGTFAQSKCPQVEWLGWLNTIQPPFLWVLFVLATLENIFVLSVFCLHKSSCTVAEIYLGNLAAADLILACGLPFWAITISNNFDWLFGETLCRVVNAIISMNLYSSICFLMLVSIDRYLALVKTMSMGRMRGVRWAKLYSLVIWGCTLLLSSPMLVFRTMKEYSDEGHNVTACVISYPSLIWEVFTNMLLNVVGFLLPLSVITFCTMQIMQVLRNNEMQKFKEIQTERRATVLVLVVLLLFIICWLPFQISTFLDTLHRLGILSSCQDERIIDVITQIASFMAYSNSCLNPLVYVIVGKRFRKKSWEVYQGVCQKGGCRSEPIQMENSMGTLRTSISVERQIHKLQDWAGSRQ
# ASSAY_INFO: Compound was assayed for binding against the human Bradykinin receptor B2 expressed in CHO cells; 0.2-16
# Assay type: cell-based
MEASUREMENT_NAME: pKd
One number for each entry, as −log10 of the molar value.

## Input // returns reported pKd for input N=C(N)NCCC[C@@H]1NC(=O)N2C3CCCCC3C[C@H]2C(=O)N2Cc3ccccc3C[C@@H]2C(=O)NCC[C@@H](NC(=O)CCc2ccccc2)C(=O)CCNC1=O (stereo partly specified)
## Output 6.70

###

Assignment: determine reported pKd for the given molecules.
# TESTED_TARGET: B2 bradykinin receptor (Homo sapiens)
# Sequence (P30411 whole entry): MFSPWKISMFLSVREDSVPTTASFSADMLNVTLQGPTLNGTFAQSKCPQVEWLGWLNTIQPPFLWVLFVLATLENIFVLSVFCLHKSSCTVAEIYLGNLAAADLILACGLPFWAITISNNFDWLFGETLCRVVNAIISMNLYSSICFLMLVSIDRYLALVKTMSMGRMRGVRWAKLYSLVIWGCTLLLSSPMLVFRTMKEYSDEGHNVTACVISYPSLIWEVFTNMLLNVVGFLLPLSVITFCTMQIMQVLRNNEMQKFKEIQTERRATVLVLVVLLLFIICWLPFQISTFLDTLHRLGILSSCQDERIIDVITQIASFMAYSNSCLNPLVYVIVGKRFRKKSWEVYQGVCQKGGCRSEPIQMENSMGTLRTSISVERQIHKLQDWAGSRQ
# ASSAY_INFO: Compound was assayed for binding against the human Bradykinin receptor B2 expressed in CHO cells
# Type: cell-based
Give bare numbers, as −log10 of the molar value.

Check out these entries, answers already filled in.
>>> meas_value("CCCCC1(CCCC)Oc2cccc(NC(=O)c3ccc(CN)cc3)c2O1")
4.89
>>> meas_value("NCc1ccc(CNC(=O)[C@@H](CN)n2cccc2CNC(=O)C(c2ccccc2)C2CCCCC2)cc1 (some centres not stated)")
4.77
>>> meas_value("CCCCC1(CCCC)Oc2cccc(N(CCCN)C(=O)c3ccc(CN)cc3)c2O1")
4.85
>>> meas_value("N=C(N)NCCC1N=C(c2ccccc2)c2cc(N(Cc3ccccc3)Cc3ccccc3)ccc2N(CCCN=C(N)N)C1=O (configuration not stated)")
5.35

I need pKd for every entry listed below, if you could help.
1. NCc1cccc(Cn2ccc3c2C(=O)C(Cc2ccccc2)(Cc2ccccc2)CC3)c1
2. NCCCN1C(=O)C(CCN)N=C(c2ccccc2)c2cc(N(Cc3ccccc3)Cc3ccccc3)ccc21 (configuration not stated)
3. NC[C@H]1C[C@@H](OCc2ccccc2)CN1C(=O)c1ccc2ccccc2c1

## Output
[5.12, 4.82, 4.18]

Just for reference, ChEMBL document CHEMBL1132794 is where these values come from.
